- protocol_summary: Solubility comparison in pH 1.8 SGF and high purity water, saturated solutions determined by HPLC
- Type: physicochemical
- assay_setup: pH 1.8, simulated gastric fluid, thermodynamic from solid, pH 1.8 SGF, 1 h
- Method: Maleate crystalline Form A, Form B of the present invention and maleate Form II in CN101918390B were added in pH 1.8 SGF (simulated gastric fluid), and in high purity water to obtain suspensions. Concentrations in the saturation solutions were determined after 1 hour, 4 hours and 24 hours by HPLC.
Structures can show the parent of a compound that is named as a salt.
measure_name: solubility at 1 h

Given CCOc1cc2ncc(C#N)c(Nc3ccc(OCc4ccccn4)c(Cl)c3)c2cc1NC(=O)/C=C/CN(C)C [Form A, maleate] , respond with its solubility at 1 h.
> 8400 µg/mL
